Source: PubChem BioAssay AID1030

# target-or-test-system: Aldehyde dehydrogenase 1A1 (Homo sapiens)
# method-description: qHTS Assay for Inhibitors of Aldehyde Dehydrogenase 1 (ALDH1A1)
# condition-description: Purified ALDH1A1, NADH fluorescence, propionaldehyde substrate; series mostly up to 75.3 µM
Out of some 220,000 compounds screened, about 16,000 (7.3%) were called active. Another 25% or so got no clear call; they are omitted. Calls come from the whole dose curve; as a rule, active = well fitted inhibition curve with a large enough effect (not every such curve was filed as active); inconclusive = small, poorly fitted or top-dose-only effect, or another doubt; inactive = no such curve, though single readings can be large or run the other way. The sample holds actives, similar compounds and a random draw of the others, so the mix is not that of the screen.
Thanks in advance; please answer with one of these: active, inactive

How was Cc1ccc(/C=C/C(=O)Nc2cc(S(=O)(=O)N3CCCCCC3)ccc2OCC(F)(F)F)o1 classified in this test? active

Identify the outcome logged in this assay for the compound shown: Cc1cccc(OCCC(=O)Nc2cc(S(=O)(=O)N3CCCCC3)ccc2N2CCOCC2)c1 inactive

Query compound follows.
# lookup: test call for [O-][n+]1c2c(nn1-c1ccc(Cl)c(Cl)c1)-c1nonc1CC2 inactive
